- Protocol details: AUC in Wistar rat brain at 10 mg/kg, po
- Type: ADME, organism-based
Quantity measured: AUC (µM·h)

Molecule | Quantity measured | Measurement units | Numeric readout
Cn1nc(C(=O)N(Cc2ccccc2)Cc2ccc(C(=O)O)cc2)c2c1-c1cc(Cl)ccc1OC2 [NIDUFEXOR] | AUC | µM·h | 1.11

###

- Test system: Androgen receptor (Homo sapiens, UniProt P10275)
- Sequence (P10275 whole entry): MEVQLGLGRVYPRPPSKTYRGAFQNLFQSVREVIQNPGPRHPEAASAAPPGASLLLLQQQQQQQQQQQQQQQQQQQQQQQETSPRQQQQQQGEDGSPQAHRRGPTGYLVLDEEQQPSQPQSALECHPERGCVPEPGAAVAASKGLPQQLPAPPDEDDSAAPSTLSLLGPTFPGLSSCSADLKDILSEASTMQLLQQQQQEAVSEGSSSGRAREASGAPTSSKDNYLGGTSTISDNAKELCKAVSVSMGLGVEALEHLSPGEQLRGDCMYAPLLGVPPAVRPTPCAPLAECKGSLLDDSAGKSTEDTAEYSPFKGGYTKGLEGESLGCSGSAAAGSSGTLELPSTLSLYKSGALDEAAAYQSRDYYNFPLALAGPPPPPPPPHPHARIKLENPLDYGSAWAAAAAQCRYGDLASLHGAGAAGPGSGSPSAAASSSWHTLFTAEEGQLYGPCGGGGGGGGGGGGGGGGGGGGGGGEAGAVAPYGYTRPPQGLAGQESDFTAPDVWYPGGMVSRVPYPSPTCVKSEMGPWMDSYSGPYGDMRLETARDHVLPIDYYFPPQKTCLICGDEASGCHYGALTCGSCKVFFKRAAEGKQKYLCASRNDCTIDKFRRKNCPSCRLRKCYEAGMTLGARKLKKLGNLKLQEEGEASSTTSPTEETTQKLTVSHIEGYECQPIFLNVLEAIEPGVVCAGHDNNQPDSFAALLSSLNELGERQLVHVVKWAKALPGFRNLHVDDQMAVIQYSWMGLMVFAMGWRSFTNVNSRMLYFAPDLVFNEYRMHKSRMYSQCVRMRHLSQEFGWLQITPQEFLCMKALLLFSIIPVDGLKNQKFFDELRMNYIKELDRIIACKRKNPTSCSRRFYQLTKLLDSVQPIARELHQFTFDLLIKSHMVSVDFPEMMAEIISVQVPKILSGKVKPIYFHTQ
- Protocol details: Agonist activity at androgen receptor (unknown origin) incubated for 2 hrs by TR-FRET assay
pEC50: −log10 of the molar value.

Molecule | pEC50
Cn1nc(C(=O)N(Cc2ccccc2)Cc2ccc(C(=O)O)cc2)c2c1-c1cc(Cl)ccc1OC2 [NIDUFEXOR] | < 4.52

###

- Protocol details: Oral bioavailability in Wistar rat at 10 mg/kg in presence of PEG 300/D5W(3:1)
- Type: ADME, organism-based
- Stated conditions: in vivo

Compound | Measurement units | bioavailability
Cn1nc(C(=O)N(CCNc2cc(C(=O)O)ccc2F)Cc2cccc(F)c2)c2c1-c1cc(F)ccc1OC2 | % | 22
Cn1nc(C(=O)N(CC(=O)Nc2cc(C(=O)O)ccc2F)Cc2cccc(F)c2)c2c1-c1cc(F)ccc1OC2 | % | 36
Cn1nc(C(=O)N(Cc2ccccc2)Cc2ccc(C(=O)O)cc2)c2c1-c1cc(Cl)ccc1OC2 [NIDUFEXOR] | % | 51

###

- Protocol details: Solubility of compound in pH 6.5 FASSIF at 2 mg measured for 5 to 60 mins by UV spectroscopic method
- Assay type: physicochemical
Quantity measured: solubility (µM)

Compound | Quantity measured | Reported relation | Numeric readout
CC(=O)NCCN(Cc1ccccc1)C(=O)c1nn(C)c2c1COc1ccc(Cl)cc1-2 | solubility | > | 175
Cn1nc(C(=O)N(Cc2ccccc2)Cc2ccc(C(=O)O)cc2)c2c1-c1cc(Cl)ccc1OC2 [NIDUFEXOR] | solubility | = | 3
O=C(O)c1cc(F)c2nc(N3[C@@H]4CC[C@H]3C[C@@H](OCc3c(-c5ccccc5OC(F)(F)F)noc3C3CC3)C4)sc2c1 [TROPIFEXOR] | solubility | = | 110
CC(=O)NCCN(Cc1cccc(F)c1)C(=O)c1nn(C)c2c1COc1ccc(Br)cc1-2 | solubility | = | 80
CC(=O)NCCN(Cc1ccccc1)C(=O)c1nn(C)c2c1COc1ccc(I)cc1-2 | solubility | = | 3
CC(=O)NCCN(Cc1ccccn1)C(=O)c1nn(C)c2c1COc1ccc(Br)cc1-2 | solubility | < | 2
CC(=O)NCCN(Cc1ccccc1F)C(=O)c1nn(C)c2c1COc1ccc(Br)cc1-2 | solubility | < | 2
CC(=O)NCCN(Cc1ccc(F)cc1)C(=O)c1nn(C)c2c1COc1ccc(Br)cc1-2 | solubility | = | 41
Cn1nc(C(=O)N(CC(=O)Nc2cc(C(=O)O)ccc2F)Cc2cccc(F)c2)c2c1-c1cc(F)ccc1OC2 | solubility | = | 46
CC(=O)NCCN(Cc1ccccc1)C(=O)c1nn(C)c2c1COc1ccc(Br)cc1-2 | solubility | = | 73
Cn1nc(C(=O)N(CCNc2cc(C(=O)O)ccc2F)Cc2cccc(F)c2)c2c1-c1cc(F)ccc1OC2 | solubility | > | 175
CC(=O)NCCN(Cc1ccccc1)C(=O)c1nn(C)c2c1COc1ccc(C3CC3)cc1-2 | solubility | = | 9
CC(=O)NCCN(Cc1ccccc1)C(=O)c1nn(C)c2c1COc1ccccc1-2 | solubility | > | 175

This collection of values is drawn from ChEMBL document CHEMBL4402557.
